measuredOn: T1, recombinant BACE1 (BACE1 extracellular domain, R&D Systems Cat#931-AS) (UniProt P56817 22-457)
T1 construct: extracellular domain; also called BACE1 extracellular domain protein
assayInfo: SPR Biacore T200, IgG captured, BACE1 analyte
Yes if Kd is below 5 nM. No if not; exact matches included in No.

Q) Bench note: check whether 4A4 (antibody, human IgG1, V domains shown, chimeric, human IgG1/kappa; also called Clone 4A4) VH: EVKLMESGPGLVAPSQSLSITCTVSGFSLTSYPINWVRQPPGKGLEWLGVIWTGGSTNYNSALKSRLSISRDNSKSQVFLKMNSLQTDDTARYYCARWDGYFGAFDYWGQGTTVTVSS VL: DIVMTQTTSSLSASLGDRVTISCRASQDISKYLNWYQQKPDGTVKLLIYYTSRLHSGVPSRFSGSGSGTDYSLTISNLEQEDIATYFCQQSLSLPYTFGGGTRLEIK shows Kd below 5 nM
A) No

Q) Another: 2H8 (antibody, human IgG1, V domains shown, chimeric, human IgG1/kappa; also called Clone 2H8; 2H8.01) VH: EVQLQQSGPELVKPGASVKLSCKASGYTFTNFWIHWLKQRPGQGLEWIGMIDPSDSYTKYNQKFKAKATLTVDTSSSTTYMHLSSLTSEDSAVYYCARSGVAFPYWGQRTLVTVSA VL: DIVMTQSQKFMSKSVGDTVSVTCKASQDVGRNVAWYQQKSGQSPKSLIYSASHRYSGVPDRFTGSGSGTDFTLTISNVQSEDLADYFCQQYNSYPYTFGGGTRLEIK
A) No

Q) Another: 1D7 (antibody, human IgG1, V domains shown, chimeric, human IgG1/kappa; also called Clone 1D7) VH: EVKLMESGPGLVAPSQSLSISCTVSGFSLTSYGVDWVRQPPGKGLEWLGVVWGGGSTNYNSALMSRLSISKDNSKSQVFLKMNSLQTDDTAMYYCAKRDYFGGLNVWGTGTTVTVSS VL: DIVMTQTTSPLSVSLGDRVTISCRASQDISKYLNWYQQRPDGTVKLLIYYTSRLHSGVPSRFSGSGSGTDYSLTISNLEQEDIATYFCHQGHKIPYTFGGGTKLELK
A) No

Q) Another: 1D2 (antibody, human IgG1, V domains shown, chimeric, human IgG1/kappa; also called Clone 1D2) VH: EVHVKQSGPELKKPGETVTISCKASGYTFTTYGMTWVRQAPGKDLEWMGWINTHSGVPIYADDFKGRFAFSLETSAGTAYLQINNLKNEDTATYFCTRRGRLGHYFDYWGQGTSVTVSS VL: DIVMTQSQKFMSTSVGDRVSVTCKASQNVGTNVAWYQQKPGQSPKLLIYWASTRHTGVPDRFTGSGSGTDFTLTISNVQSEDLADYFCQQYSSYPYTFGGGTKLELK
A) Yes

Cited source for all entries: patent US20210070881A1
